System: SW-620 colon
Test Details: NCI tumour cell line growth inhibition, 48 h
Property Measured: TGI

[[record]]
molecule = "O=C(/C=C/c1ccccc1)CCN1CCOCC1"
tgt = "SW-620 colon"
property_measured = "TGI"
measured_result = "16.5 µM"


q: For the molecule `CN[C@@H](C)C(=O)N[C@H](C(=O)N1CCC[C@H]1C(=O)Nc1sc(-c2ncco2)nc1-c1ccccc1)C1CCCCC1` , report TGI.
a: > 100 µM

q: For the molecule `O=C(c1ccccc1)c1ccc2nc(-c3c(Cl)c(Cl)c(Cl)c(Cl)c3C(=O)N/N=C/c3ccc(Cl)cc3)[nH]c2c1` , report TGI.
a: > 100 µM

q: For the molecule Cc1cccc(C)c1NC(=O)/C(=N/NC(N)=S)C(C)C(=O)c1ccc(Cl)cc1 (configuration not stated) , report TGI.
a: > 100 µM

q: For the molecule O=C(O)c1ccc(C2COc3ccc(Cl)cc3C2)cc1 (configuration not stated) , report TGI.
a: > 100 µM

q: For the molecule `CN(C)CCCn1c(=O)c2ccccc2c2ccccc21` , report TGI.
a: 53.3 µM

q: For the molecule Nc1ccn(C2C=C(CO)C(O)C2O)c(=O)c1 (configuration not stated) , report TGI.
a: > 625 µM

q: For the molecule `CO/C(=N\N=C\c1ccc(OC)c(OC)c1)c1ccncc1` , report TGI.
a: > 10 µM

q: For the molecule `C[C@]12CC[C@@H]3c4cc(OCC(F)(F)F)c(O)cc4CC[C@H]3[C@@H]1CC[C@@H]2O` , report TGI.
a: 9.03 µM

q: For the molecule O=C1OCC2=C1C(c1ccccc1)c1cc3c(cc1N2)OCO3 (configuration not stated) , report TGI.
a: > 100 µM

q: For the molecule COC1C=COC2(C)Oc3c(C)c(O)c4c(c3C2=O)/C(=N/C2CCC(O)OC2C)C=C(NC(=O)/C(C)=C\C(=O)C2CC2C(O)C(C)C(O)C(C)C(OC(C)=O)C1C)C4=O (configuration not stated) , report TGI.
a: 4.91 µM

q: For the molecule `CO/N=C(/C)c1ccc(NC(=O)CSc2nnc(-c3ccncc3)n2-c2ccccc2)cc1` , report TGI.
a: > 100 µM

Where do the numbers come from? From PubChem BioAssay (NCI).
